# reported protein stability index; entries follow
B1: IKZF1 (parent)
chain: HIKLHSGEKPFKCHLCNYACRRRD

Variants of: B1
Test: protein stability index of a GFP-peptide fusion (GPS, HEK-293T) (PSI 1-6); higher = more stable;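 also: lentivirally expressed fusions sorted by FACS into six bins by GFP to DsRed ratio, PSI derived from sequencing read proportions per bin multiplied by bin number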
Details: c terminus: a fixed tail appended
# answer = number (no unit)

protein stability index for Y18E ? 2.02

protein stability index for K3Q ? 2.03

protein stability index for I2T ? 2.02

protein stability index for G7W ? 2

protein stability index for C16M ? 2.04

protein stability index for N17S ? 1.97

Note: attention shifts to another entry.
protein stability index for D24E ? 1.99
